# target under test: wildtype CFTR (Homo sapiens, UniProt P13569)
# Sequence (P13569 whole entry): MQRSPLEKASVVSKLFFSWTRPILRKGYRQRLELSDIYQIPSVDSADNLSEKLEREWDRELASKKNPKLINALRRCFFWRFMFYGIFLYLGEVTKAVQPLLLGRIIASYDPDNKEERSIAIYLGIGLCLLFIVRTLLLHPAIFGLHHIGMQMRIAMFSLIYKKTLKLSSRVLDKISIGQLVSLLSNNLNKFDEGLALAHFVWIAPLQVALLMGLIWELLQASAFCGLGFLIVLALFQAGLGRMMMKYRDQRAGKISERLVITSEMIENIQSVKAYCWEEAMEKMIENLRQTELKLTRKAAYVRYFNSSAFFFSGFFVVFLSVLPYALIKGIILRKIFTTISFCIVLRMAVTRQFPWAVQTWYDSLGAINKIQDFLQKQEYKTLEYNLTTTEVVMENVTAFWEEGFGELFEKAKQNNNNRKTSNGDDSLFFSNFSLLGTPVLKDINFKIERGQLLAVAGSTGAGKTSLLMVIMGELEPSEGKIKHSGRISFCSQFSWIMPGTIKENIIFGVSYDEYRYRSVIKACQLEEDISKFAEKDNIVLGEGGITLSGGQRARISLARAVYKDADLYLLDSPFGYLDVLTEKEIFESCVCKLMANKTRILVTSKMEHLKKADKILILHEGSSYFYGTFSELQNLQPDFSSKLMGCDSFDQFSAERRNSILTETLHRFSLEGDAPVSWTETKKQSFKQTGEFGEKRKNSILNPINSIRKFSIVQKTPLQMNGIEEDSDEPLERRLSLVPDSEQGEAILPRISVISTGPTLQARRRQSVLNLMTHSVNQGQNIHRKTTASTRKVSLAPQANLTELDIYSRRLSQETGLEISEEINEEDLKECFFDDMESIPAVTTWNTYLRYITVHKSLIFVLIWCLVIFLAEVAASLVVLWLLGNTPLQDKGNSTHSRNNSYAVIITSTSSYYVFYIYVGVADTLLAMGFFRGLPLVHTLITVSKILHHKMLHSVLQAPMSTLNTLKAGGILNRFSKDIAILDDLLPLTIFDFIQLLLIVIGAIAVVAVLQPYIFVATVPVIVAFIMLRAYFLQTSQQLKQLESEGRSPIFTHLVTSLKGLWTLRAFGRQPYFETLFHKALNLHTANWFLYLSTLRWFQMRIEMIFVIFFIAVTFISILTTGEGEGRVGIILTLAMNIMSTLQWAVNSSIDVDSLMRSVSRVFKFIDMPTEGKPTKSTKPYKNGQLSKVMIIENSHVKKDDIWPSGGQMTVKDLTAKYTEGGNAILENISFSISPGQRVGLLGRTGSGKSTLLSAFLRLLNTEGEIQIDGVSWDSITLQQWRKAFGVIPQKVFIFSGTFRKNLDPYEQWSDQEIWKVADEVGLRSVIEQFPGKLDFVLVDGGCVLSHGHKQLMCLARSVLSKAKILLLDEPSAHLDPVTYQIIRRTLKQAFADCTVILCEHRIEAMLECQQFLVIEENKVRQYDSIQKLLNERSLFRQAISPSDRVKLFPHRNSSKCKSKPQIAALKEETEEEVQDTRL
# test: Activation of wildtype CFTR in transfected FRT cells
# settings: in the presence of forskolin 50 nM
Parameter Kd: see the listing below.
A number alone suffices; assume nM.

>  <smiles repr>
COC(=O)C1=C(C)NC(C)=C(C(=O)OC)C1c1ccc(C(C)C)cc1

>  <target under test>
wildtype CFTR (Homo sapiens, UniProt P13569)

>  <property measured>
Kd

>  <unit descriptor>
nM

>  <value observed>
60

$$$$
>  <smiles repr>
NC(=O)c1oc2ccccc2c1NC(=O)c1ccccc1

>  <target under test>
wildtype CFTR (Homo sapiens, UniProt P13569)

>  <property measured>
Kd

>  <unit descriptor>
nM

>  <value observed>
50

$$$$
>  <smiles repr>
Cc1cc(Br)c2[nH]c3c(c2c1)CCCC3=O

>  <target under test>
wildtype CFTR (Homo sapiens, UniProt P13569)

>  <property measured>
Kd

>  <unit descriptor>
nM

>  <value observed>
2200

$$$$

Ask | Please list Kd recorded for the compound "NC(=O)c1c(NC(=O)c2ccccc2Cl)sc2c1CCCC2"
Reply | 1300

Ask | Please list Kd recorded for the compound "CC(C)(C)c1ccc(Oc2c(N)ccc3c2C(=O)c2ccccc2C3=O)cc1"
Reply | 20

meta.source: patent US7696244B2
